Biological target: T1, GLP-1R in the INS1e assay (UniProt P32301 22-463, limits assumed)
T1 sequence (looked up): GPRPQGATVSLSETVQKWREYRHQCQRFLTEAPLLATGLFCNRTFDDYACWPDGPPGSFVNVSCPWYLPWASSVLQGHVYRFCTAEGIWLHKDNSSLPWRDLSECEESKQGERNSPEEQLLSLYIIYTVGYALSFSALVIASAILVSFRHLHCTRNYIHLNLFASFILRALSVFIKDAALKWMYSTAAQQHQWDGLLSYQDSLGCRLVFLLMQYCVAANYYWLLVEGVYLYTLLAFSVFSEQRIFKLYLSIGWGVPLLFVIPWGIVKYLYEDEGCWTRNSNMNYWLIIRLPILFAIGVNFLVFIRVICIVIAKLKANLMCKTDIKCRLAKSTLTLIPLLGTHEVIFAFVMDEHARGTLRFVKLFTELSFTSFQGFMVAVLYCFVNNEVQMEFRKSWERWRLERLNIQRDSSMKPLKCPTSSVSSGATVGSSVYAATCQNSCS
Assay: cell-based or functional assay
Starred links: 1 amine or outer side, 2 acyl side, 3 side chain; linkers in the order of their positions; H or OH if unused. Non-standard residues stand in square brackets, D forms with d. Groups on a side chain read outwards from the residue. Primed or numbered codes have the meaning given here. No end group written: not given here. *: point of attachment. γGlu = O=C(O)[C@H](CCC(=O)[*:2])N[*:1]; αMeF = C[C@](N)(Cc1ccccc1)C(=O)O; αMeK = C[C@](N)(CCCCN)C(=O)O; Lauroyl = CCCCCCCCCCCC(=O)*; αMeS = C[C@](N)(CO)C(=O)O; PEG2′ = not defined here; Aib = CC(C)(N)C(=O)O
recorded metric: cAMP INS1e assay EC50, Mean pM GLP-1R (pM)
Give bare numbers, in pM.

H[Aib]EGS[αMeF]TSDV[αMeS]SYK([PEG2′-PEG2′-γGlu-Lauroyl])EGEAA[αMeK]K([PEG2′-PEG2′-γGlu-Lauroyl])FIK([PEG2′-PEG2′-γGlu-Lauroyl])FVVEGG-NH2 [SEQ ID NO: 454]: 5540

With those in mind, consider the next binder.
Qu. Reported cAMP INS1e assay EC50, Mean pM GLP-1R, binder H[Aib]EGS[αMeF]TSDV[αMeS]SK([PEG2′-PEG2′-γGlu-Lauroyl])LEGEAA[αMeK]K([PEG2′-PEG2′-γGlu-Lauroyl])FIAFK([PEG2′-PEG2′-γGlu-Lauroyl])VEGG-NH2 [SEQ ID NO: 482] : ____
Ans. 5860
